# test-target: Recombinant human renin (Homo sapiens (Human), UniProt P00797)
# Sequence (P00797 67-406): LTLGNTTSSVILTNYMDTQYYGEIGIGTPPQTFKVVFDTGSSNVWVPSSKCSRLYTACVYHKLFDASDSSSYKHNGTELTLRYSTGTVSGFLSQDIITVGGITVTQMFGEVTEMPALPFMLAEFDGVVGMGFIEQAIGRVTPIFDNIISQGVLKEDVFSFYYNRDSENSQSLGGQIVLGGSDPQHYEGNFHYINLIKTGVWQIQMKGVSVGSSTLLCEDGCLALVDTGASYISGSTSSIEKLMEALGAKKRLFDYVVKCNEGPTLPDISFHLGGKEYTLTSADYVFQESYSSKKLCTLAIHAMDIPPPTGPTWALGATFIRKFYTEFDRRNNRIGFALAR
# test: Inhibitory activity against human renin (fluorogenic synthetic peptide substrate)
# Format: biochemical
# particulars: assay for renin-inhibition; read-out: renin-inhibition IC50
Counter-ions that a name gives are not always drawn.
test-readout: IC50

[[record]]
molecule = "COCCCOc1cc(CN(C(=O)[C@H]2CNCCO2)C2CC2)ccc1OC [hydrochloride]"
test_target = "Recombinant human renin (Homo sapiens (Human), UniProt P00797)"
test_readout = "IC50"
result = "< 1000 nM"

